Target: T1, human CD71 extracellular domain (CD71-ECD) (human, UniProt P02786 89-760)
T1 construct: also called hCD71; human CD71-ECD
T1 sequence (P02786 89-760): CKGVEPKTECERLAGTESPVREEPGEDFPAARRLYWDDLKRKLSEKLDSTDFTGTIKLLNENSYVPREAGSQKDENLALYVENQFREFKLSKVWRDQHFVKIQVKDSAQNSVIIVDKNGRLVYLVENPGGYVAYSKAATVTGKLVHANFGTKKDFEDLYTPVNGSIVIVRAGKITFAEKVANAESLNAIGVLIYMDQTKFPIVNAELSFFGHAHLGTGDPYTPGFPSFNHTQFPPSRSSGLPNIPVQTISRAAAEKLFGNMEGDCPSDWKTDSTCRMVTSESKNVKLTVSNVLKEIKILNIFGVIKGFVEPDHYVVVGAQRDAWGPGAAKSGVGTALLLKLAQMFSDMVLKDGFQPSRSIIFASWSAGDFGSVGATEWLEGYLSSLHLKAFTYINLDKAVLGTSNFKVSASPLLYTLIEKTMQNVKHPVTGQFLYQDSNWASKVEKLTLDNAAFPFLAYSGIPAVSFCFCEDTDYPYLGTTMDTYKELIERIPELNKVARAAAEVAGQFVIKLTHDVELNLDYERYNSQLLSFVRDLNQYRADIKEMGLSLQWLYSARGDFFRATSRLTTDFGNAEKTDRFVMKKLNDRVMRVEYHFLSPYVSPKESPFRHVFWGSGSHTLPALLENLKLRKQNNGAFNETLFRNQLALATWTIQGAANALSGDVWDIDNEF
Assay: primary ELISA, RLU ratio to HSA
readout: hCD71:HSA
Enter a number only.

Respond only with hCD71:HSA recorded for CD71-binding FN3 domain SEQ ID NO: 245 (designed binder) MSLPAPKNLVVSRVTEDSARLSWTAPDAAFDSFEISYWEHTFNGEAIILFVPGSERSYDLTGLKPGTEYYVTIGGVKGGAWSPPLWAHFTT
377

Respond only with hCD71:HSA recorded for CD71-binding FN3 domain SEQ ID NO: 275 (designed binder) MSLPAPKNLVVSRVTEDSARLSWTAPDAAFDSFEIGYFENLYLGEAIVLTVPGSERSYDLTGLKPGTEYWVQIGGVKGGNWSAPLVAEFTT
322

Respond only with hCD71:HSA recorded for CD71-binding FN3 domain SEQ ID NO: 293 (designed binder) MSLPAPKNLVVSRVTEDSARLSWTAPDAAFDSFFIGYLEPQPPGEAIDLYVPGSERSYDLTGLKPGTEYNVTIQGVKGGFPSHPLVATFTT
561

Respond only with hCD71:HSA recorded for CD71-binding FN3 domain SEQ ID NO: 273 (designed binder) MLPAPKNLVVSRVTEDSARLSWTAPDAAFDSFEISYWEHTFNGEAIILFVPGSERSYDLTGLKPGTEYYVTIGGVKGGAWSPPLWAEFTT
664

Respond only with hCD71:HSA recorded for CD71-binding FN3 domain SEQ ID NO: 297 (designed binder) MSLPAPKNLVVSRVTEDSARLSWTAPDAAFDSFEISYFENTWYGEAIVLTVPGSERSYDLTGLKPGTEYSVRIFGVKGGNFSFPLSAIFTT
512

Respond only with hCD71:HSA recorded for CD71-binding FN3 domain SEQ ID NO: 329 (designed binder) MSLPAPKNLVVSRVTEDSARLSWTAPDAAFDSFDIGYFEATYYGEAIVLTVPGSERSYDLTGLKPGTEYRVWIGGVKGGYYSNPLSAIFTT
90

Respond only with hCD71:HSA recorded for CD71-binding FN3 domain SEQ ID NO: 251 (designed binder) MSLPAPKNLVVSRVTEDSARLSWTAPDAAFDSFEIGYFENLYLGEAIVLTVPGSERSYDLTGLKPGTEYWVQIGGVKGGNWSAPLVATFTT
724

Respond only with hCD71:HSA recorded for CD71-binding FN3 domain SEQ ID NO: 320 (designed binder) MSLPVPKNLVVSRVTEDSARLSWTAPDAAFDSFEIGYWENAYKGEAIVLTVPGSERSYDLTGLKPGTEYWVQIGGVKGGNWSAPLSAIFTT
172

Respond only with hCD71:HSA recorded for CD71-binding FN3 domain SEQ ID NO: 331 (designed binder) MSLPAPKNLVVSRVTEDSARLSWTAPDAAFDSFFIGYLEPQPPGEAIHLYVPGSERSYDLTGLKPGTEYNVTIQGVKVGFPSEPLIANFTT
524
